These measurements were taken from patent US6706741B2.

Molecular target: acetylcholinesterase (Rattus norvegicus, UniProt P37136)
Construct: Using a rat brain homogenate as a source of acetylcholinesterase; from tissue; host or cells: rat brain homogenate
Sequence (P37136 32-614): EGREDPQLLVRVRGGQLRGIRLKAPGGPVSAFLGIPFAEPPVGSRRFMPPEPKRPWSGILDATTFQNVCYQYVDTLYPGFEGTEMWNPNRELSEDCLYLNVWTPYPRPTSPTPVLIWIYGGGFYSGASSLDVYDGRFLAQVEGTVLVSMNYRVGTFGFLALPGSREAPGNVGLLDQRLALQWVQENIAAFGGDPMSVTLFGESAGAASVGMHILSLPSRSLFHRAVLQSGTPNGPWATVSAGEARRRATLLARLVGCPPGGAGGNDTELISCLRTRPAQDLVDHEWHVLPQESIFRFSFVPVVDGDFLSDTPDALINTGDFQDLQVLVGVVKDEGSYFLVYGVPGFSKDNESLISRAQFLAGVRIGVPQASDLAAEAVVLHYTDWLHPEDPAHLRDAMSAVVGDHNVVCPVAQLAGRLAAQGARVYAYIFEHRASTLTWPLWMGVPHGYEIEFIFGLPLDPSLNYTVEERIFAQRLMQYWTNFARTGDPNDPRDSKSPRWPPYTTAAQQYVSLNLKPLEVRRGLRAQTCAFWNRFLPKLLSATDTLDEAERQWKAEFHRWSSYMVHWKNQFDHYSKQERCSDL
Experiment: biochemical
Details: rat brain homogenate as source of acetylcholinesterase; acetylthiocholine substrate, DTNB, absorbance at 412 nm
measurement label: pIC50
Quick note: pIC50 means taking -log10 of the concentration in moles per liter.

Would you mind telling me what pIC50 value was observed for COc1cc2c(cc1OC)C(=O)C(Cc1cc[n+](Cc3ccccc3)cc1)C2 (stereo not shown) ?
8.42
